Here, each record is paired with measured pIC50 data.
- Test system: VCaP cells
- procedureSummary: VCaP growth inhibition assay
- Assay type: cell-based
- assaySetup: 30 pM R1881, 9 days, CTG
- Procedure: VCaP cells (ATCC Cat #CRL-2876) are plated at 1×10^4 cells per well of a white plastic 96-well cluster plate (Thermo Scientific Nunc Cat #165306) in 100 uL phenol red-free DMEM (Gibco Cat #21063-029) media with 5% CSS (Omega Scientific Cat #FB-04). Cluster plates are returned to the incubator (37*C/5% CO2) for 72 hours prior to treatment. […]
pIC50: −log10 of the molar value.

Solved entries:
# molecule, testSystem, pIC50
rows = [
    ("COc1cc(OC2C(C)(C)C(NC(=O)c3cnc(N4CCC(CN5CCC(n6nc(N7CCCc8cc(-c9cnn(C)c9)c(C(F)F)cc87)c7c6CCN(C(C)=O)C7)CC5)C5(CC5)C4)nc3)C2(C)C)ccc1C#N (centres unmarked)", "VCaP cells", "≥ 10.00"),
    ("CC(=O)N1CCc2c(c(N3CCCc4cc(-c5cnn(C)c5)c(C(F)F)cc43)nn2C2CCN(C(=O)COC3CCN(c4ncc(C(=O)NC5C(C)(C)C(Oc6ccc(C#N)c(Cl)c6)C5(C)C)cn4)CC3)CC2)C1 (centres unmarked)", "VCaP cells", "9.00 to 10.00"),
    ("COC1CN(c2ncc(C(=O)NC3C(C)(C)C(Oc4ccc(C#N)c(Cl)c4)C3(C)C)cn2)CCC1CN1CCC(n2nc(N3CCCc4cc(-c5cnn(C)c5)c(C(F)F)cc43)c3c2CCN(C(C)=O)C3)CC1 (centres unmarked) [Compound 331]", "VCaP cells", "9.00 to 10.00"),
    ("CC(=O)N1CCc2c(c(N3CCCc4cc(-c5cnn(C)c5)c(C)cc43)nn2C2CCN(C3CCC4(CC3)CN(c3ncc(C(=O)NC5C(C)(C)C(Oc6ccc(C#N)c(Cl)c6C)C5(C)C)cn3)C4)CC2)C1 (centres unmarked)", "VCaP cells", "9.00 to 10.00"),
]

Kindly consider the entry below.
Item Cn1c(=O)sc2ccc(N3CCCc4cc(-c5ccc(CCC6CCN(c7ncc(C(=O)NC8C(C)(C)C(Oc9ccc(C#N)c(Cl)c9)C8(C)C)cn7)CC6)nc5)ncc43)cc21 (centres unmarked) with VCaP cells - pIC50? 7.00 to 9.00
